Value source: patent US20090062255A1

System: Acyl CoA-Cholesterol Acyltransferase (ACAT)
Test: ACAT enzyme assay
Assay type: biochemical, rat
Conditions: 10 μM compound, 1% DMSO
Rule: Percentage of inhibition or binding activity, ACAT (10 μM) of 80% or more gives Condition met; anything lower gives Condition not met.

{"columns": ["smiles input", "answer label"],
 "data": [
  ["COc1cc(O)cc2c1Nc1c(O)cccc1C(=O)N2C/C=C(\\C)CC/C=C(\\C)CCC=C(C)C", "Condition not met"],
  ["COc1cccc2c1Nc1c(OC)cc(O)cc1N(CC=C(C)CCC=C(C)CCC=C(C)C)C2=O", "Condition met"],
  ["CC(=O)Oc1cccc2c1Nc1c(OC(C)=O)cc(O)cc1N(CC=C(C)CCC=C(C)CCC=C(C)C)C2=O", "Condition met"]
]}

Q: Please indicate if the recorded Percentage of inhibition or binding activity, ACAT (10 μM) for CC(C)=CCC/C(C)=C/CC/C(C)=C/CN1C(=O)c2cccc(O)c2N(C)c2c(O)cc(O)cc21 meets or exceeds 80%.
A: Condition not met

Q: Please indicate if the recorded Percentage of inhibition or binding activity, ACAT (10 μM) for CC(=O)Oc1cc(OC(C)=O)c2c(c1)N(CC=C(C)CCC=C(C)CCC=C(C)C)C(=O)c1cccc(O)c1N2 meets or exceeds 80%.
A: Condition not met

Q: Please indicate if the recorded Percentage of inhibition or binding activity, ACAT (10 μM) for COc1cc(OC)c2c(c1)N(C/C=C(\C)CC/C=C(\C)CCC=C(C)C)C(=O)c1cccc(O)c1N2 meets or exceeds 80%.
A: Condition not met

Q: Please indicate if the recorded Percentage of inhibition or binding activity, ACAT (10 μM) for CC(=O)Oc1cc(O)c2c(c1)N(CC=C(C)CCC=C(C)CCC=C(C)C)C(=O)c1cccc(OC(C)=O)c1N2 meets or exceeds 80%.
A: Condition not met

====

Biological target: GABAA, the Central Benzodiazepine Receptor (CBR)
Experiment: CBR radioligand binding assay ([3H]flunitrazepam, rat brain)
Details: 1 nM [3H]-Flunitrazepam
From the text: GABAA, the Central Benzodiazepine Receptor (CBenzR or CBR) is involved in anxiolitic activities. […] As Compound 1 was isolated from structural prediction through genetic analysis and activity identified through in vitro cytotoxic assays, its molecular target(s) were unknown at the time of discovery. […] The effect of ECO-4601 on CBR (GABAA) and PBR was initially evaluated in a radioligand-binding assay at MDS Pharma Services (Taipei, Tawain). […]
pIC50: −log10 of the molar value.
reported metric: pIC50

Q: Which pIC50 is reported with GABAA, the Central Benzodiazepine Receptor (CBR) for this entry: CC(C)=CCC/C(C)=C/CC/C(C)=C/CN1C(=O)c2cccc(O)c2Nc2c(O)cc(O)cc21 ?
A: < 5.00

====

Assay: Plasma and tissue drug levels after IV bolus and CIV infusion, rat C6 orthotopic brain tumors
Type: in vivo
Conditions: rat, plasma, intravenous, FIG. 7; read-out: plasma level (mean)
reported metric: concentration at 3 h (ng/g)
Field: numeric (ng/g). Do not append units.

Q: Need concentration at 3 h of CC(C)=CCC/C(C)=C/CC/C(C)=C/CN1C(=O)c2cccc(O)c2Nc2c(O)cc(O)cc21 , thanks.
A: 16200

====

Molecular target: peripheral benzodiazepine receptor (PBR) (Rattus norvegicus, UniProt P16257)
Construct: CBR and PBR were obtained from rat brain and heart membrane-fractions, respectively; from tissue; host or cells: Wistar rat heart membranes
Assay: PBR radioligand binding assay ([3H]PK-11195, rat heart)
Details: 1 μM compound, 1% DMSO; read-out: Percentage of inhibition or binding activity, PBR (1 μM)
Each entry below carries its reported inhibition at 1 µM.
Field: numeric (%). Do not append units.

// known answers, use as guide
{"columns": ["molecule", "assay system", "readout value"],
 "data": [
  ["COc1cc(O)cc2c1Nc1c(O)cccc1C(=O)N2C/C=C(\\C)CC/C=C(\\C)CCC=C(C)C", "peripheral benzodiazepine receptor (PBR) (Rattus norvegicus, UniProt P16257)", 68],
  ["CC(C)CCCC(C)CCCC(C)CCN1C(=O)c2cccc(O)c2Nc2c(O)cc(O)cc21 (stereo not shown)", "peripheral benzodiazepine receptor (PBR) (Rattus norvegicus, UniProt P16257)", -1],
  ["CC(C)=CCC/C(C)=C/CC/C(C)=C/CN1C(=O)c2cccc(O)c2N(C)c2c(O)cc(O)cc21", "peripheral benzodiazepine receptor (PBR) (Rattus norvegicus, UniProt P16257)", 65],
  ["COc1cc(OC)c2c(c1)N(C/C=C(\\C)CC/C=C(\\C)CCC=C(C)C)C(=O)c1cccc(O)c1N2", "peripheral benzodiazepine receptor (PBR) (Rattus norvegicus, UniProt P16257)", 75],
  ["COc1cccc2c1Nc1c(O)cc(O)cc1N(C/C=C(\\C)CC/C=C(\\C)CCC=C(C)C)C2=O", "peripheral benzodiazepine receptor (PBR) (Rattus norvegicus, UniProt P16257)", 92]
]}

Q: Need inhibition at 1 µM of CC(=O)Oc1cc(OC(C)=O)c2c(c1)N(CC=C(C)CCC=C(C)CCC=C(C)C)C(=O)c1cccc(OC(C)=O)c1N2 , thanks.
A: 39

Q: Need inhibition at 1 µM of CC(=O)Oc1cc(O)c2c(c1)N(CC=C(C)CCC=C(C)CCC=C(C)C)C(=O)c1cccc(OC(C)=O)c1N2 , thanks.
A: 39

Q: Need inhibition at 1 µM of CC(=O)Oc1cc(OC(C)=O)c2c(c1)N(CC=C(C)CCC=C(C)CCC=C(C)C)C(=O)c1cccc(O)c1N2 , thanks.
A: 32

Q: Need inhibition at 1 µM of CC(=O)Oc1cccc2c1Nc1c(OC(C)=O)cc(O)cc1N(CC=C(C)CCC=C(C)CCC=C(C)C)C2=O , thanks.
A: 86

====

Tested on: PC-3 (prostate adenocarcinoma)
Experiment: In vitro cytotoxic activity (GI50, propidium iodide), PC-3
Format: cell-based, human
Conditions: Homo sapiens, 96 h, method (1)
reported metric: GI50 (µM)
Field: numeric (µM). Do not append units.

// known answers, use as guide
{"columns": ["molecule", "GI50 [µM]"],
 "data": [
  ["CC(=O)Oc1cccc2c1Nc1c(OC(C)=O)cc(O)cc1N(CC=C(C)CCC=C(C)CCC=C(C)C)C2=O", 1.35],
  ["CC(=O)Oc1cc(OC(C)=O)c2c(c1)N(CC=C(C)CCC=C(C)CCC=C(C)C)C(=O)c1cccc(O)c1N2", 1.44],
  ["CC(C)CCCC(C)CCCC(C)CCN1C(=O)c2cccc(O)c2Nc2c(O)cc(O)cc21 (stereo not shown)", 0.9]
]}

Kindly review the next molecule as well.
Q: Need GI50 of CC(=O)Oc1cc(O)c2c(c1)N(CC=C(C)CCC=C(C)CCC=C(C)C)C(=O)c1cccc(OC(C)=O)c1N2 , thanks.
A: 5.35

====

Each entry below carries its reported inhibition at 4 µM.
Target: human 5-LO (Homo sapiens)
Construct: Human peripheral blood […] (PMNs) were isolated through a Ficoll-Paque density gradient; endogenous in cells; host or cells: human peripheral blood mononuclear cells (PBML/PMNs)
Sequence (P09917 whole entry): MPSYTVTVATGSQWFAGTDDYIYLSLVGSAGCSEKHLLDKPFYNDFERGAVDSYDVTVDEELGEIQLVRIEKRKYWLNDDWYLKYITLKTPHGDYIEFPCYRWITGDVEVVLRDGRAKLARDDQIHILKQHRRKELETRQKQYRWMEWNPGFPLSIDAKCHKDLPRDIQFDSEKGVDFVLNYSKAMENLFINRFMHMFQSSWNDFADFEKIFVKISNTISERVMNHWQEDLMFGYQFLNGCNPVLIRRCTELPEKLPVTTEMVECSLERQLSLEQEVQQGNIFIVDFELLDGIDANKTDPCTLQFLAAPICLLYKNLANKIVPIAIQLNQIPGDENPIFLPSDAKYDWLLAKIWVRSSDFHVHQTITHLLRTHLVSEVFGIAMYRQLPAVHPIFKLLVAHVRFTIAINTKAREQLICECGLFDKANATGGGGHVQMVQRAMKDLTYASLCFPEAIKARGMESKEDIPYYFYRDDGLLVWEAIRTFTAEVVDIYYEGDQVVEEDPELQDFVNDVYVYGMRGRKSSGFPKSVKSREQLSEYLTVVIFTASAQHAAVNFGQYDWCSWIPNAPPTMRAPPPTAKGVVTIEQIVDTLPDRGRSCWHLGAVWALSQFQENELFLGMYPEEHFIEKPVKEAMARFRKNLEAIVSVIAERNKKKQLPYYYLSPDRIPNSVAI
Assay: 5-LO inhibition assay (EIA quantitation of LTB4)
Assay type: biochemical
Conditions: 4 μM compound, 1% DMSO; read-out: Percentage of inhibition or binding activity, 5-LO (4 μM)
Field: numeric (%). Do not append units.

// known answers, use as guide
{"columns": ["compound", "readout value"],
 "data": [
  ["CC(C)CCCC(C)CCCC(C)CCN1C(=O)c2cccc(O)c2Nc2c(O)cc(O)cc21 (stereo not drawn) [Compound 46]", 65],
  ["COc1cc(OC)c2c(c1)N(CC=C(C)CCC=C(C)CCC=C(C)C)C(=O)c1cccc(OC)c1N2 [Compound 8]", -13],
  ["CC(C)=CCC/C(C)=C/CC/C(C)=C/CN1C(=O)c2cccc(O)c2Nc2c(O)cc(O)cc21 [Compound 1]", 99]
]}

Q: Need inhibition at 4 µM of COc1cccc2c1Nc1c(OC)cc(O)cc1N(CC=C(C)CCC=C(C)CCC=C(C)C)C2=O [Compound 7] , thanks.
A: 63

Q: Need inhibition at 4 µM of CC(C)=CCC/C(C)=C/CC/C(C)=C/CN1C(=O)c2cccc(O)c2N(Cc2ccccc2)c2c(O)cc(O)cc21 [Compound 3] , thanks.
A: 72

====

Test system: SRBC
Experiment: Hemolysis of SRBC
Assay type: cell-based
Details: concentration necessary to achieve 50% hemolysis of SRBC
Each entry below carries its reported Hemolysis (ED50 μg/mL).

// known answers, use as guide
{"columns": ["compound", "Hemolysis (ED50 μg/mL)"],
 "data": [
  ["CC(=O)Oc1cc(OC(C)=O)c2c(c1)N(CC=C(C)CCC=C(C)CCC=C(C)C)C(=O)c1cccc(O)c1N2", ">64 µg/mL"],
  ["CCN1c2c(O)cccc2C(=O)N(CC=C(C)CCCC(C)(CCCC(C)(C)OC)OC)c2cc(O)cc(O)c21 (stereo not shown)", ">64 µg/mL"],
  ["CCC(C)N1c2c(O)cccc2C(=O)N(C/C=C(\\C)CC/C=C(\\C)CCC=C(C)C)c2cc(O)cc(O)c21 (stereo not shown)", "60.9 µg/mL"]
]}

Kindly review the next compound as well.
Q: Need Hemolysis (ED50 μg/mL) of COC(C)(CCC=C(C)C)CCC/C(C)=C/CN1C(=O)c2cccc(O)c2N(C)c2c(O)cc(O)cc21 (stereo not shown) , thanks.
A: >64 µg/mL
